- Test system: DLD-1 colon
- test: NCI tumour cell line growth inhibition, 48 h
measurement_name: TGI

Cc1ccc(Oc2ccccc2N)cc1 = > 100 µM
CC(C)OP(=O)(OC(C)C)C1=NN(c2ccc([N+](=O)[O-])cc2)C(P(=O)(OC(C)C)OC(C)C)=NN1c1ccc([N+](=O)[O-])cc1 = > 100 µM

# context switch: different compound, same TGI
Which TGI is reported for this compound? O=c1cccccc1NCCCCCCCNc1cccccc1=O
> 100 µM

###

Listing of recorded TGI by entry.
- System: SW-620 colon
- test: NCI tumour cell line growth inhibition, 48 h

Known results for compounds:
CC(C)OP(=O)(OC(C)C)C1=NN(c2ccc([N+](=O)[O-])cc2)C(P(=O)(OC(C)C)OC(C)C)=NN1c1ccc([N+](=O)[O-])cc1 = > 100 µM
CC(=O)NC1=C(NCCCl)C(=O)c2ccccc2C1=O = > 100 µM
Cc1cn(C2CC(CCCO)C(CO)O2)c(=O)[nH]c1=O (stereo not given) = > 100 µM
NS(=O)(=O)c1ccc(N=Nc2c(O)[nH]c3ccc(C(=O)NCc4ccncc4)cc23)cc1 = > 25 µM

# context switch: different compound, same TGI
Which TGI is reported for this compound? CCc1ccccc1NC(=O)/C=C/c1ccccc1
> 100 µM

###

Listing of recorded TGI by entry.
- Tested on: SR leukemia
- test: NCI tumour cell line growth inhibition, 48 h

CC(C)(C)C(=O)OCC1OC(N=[N+]=[N-])C(OC(=O)C(C)(C)C)C(OC(=O)C(C)(C)C)C1OC(=O)C(C)(C)C (stereo not drawn) = > 100 µM
Cc1ccc(Sc2ccccc2[N+](=O)[O-])cc1 = > 100 µM

# context switch: different compound, same TGI
Which TGI is reported for this compound? Cn1c([C@H](C#N)C(=O)c2cc(O)ccc2[N+](=O)[O-])nc2ccccc21
> 100 µM

###

- Tested on: SNB-75 CNS
- test: NCI tumour cell line growth inhibition, 48 h
measurement_name: TGI

Known results for compounds:
Cc1ccc(NC2=NCCO2)c2c1CCC2 = 84.5 µM
[O-]c1ccccc1C=Nc1ccc2c(c1)CCC2.[O-]c1ccccc1C=Nc1ccc2c(c1)CCC2.[O]=[U+2]=[O] = > 100 µM

# context switch: different compound, same TGI
Which TGI is reported for this compound? CS[C@]12[C@@H]3C(=O)N(C)C(=O)[C@@H]3[C@](C)(C(=O)N1C)C(=O)N2c1ccccc1
> 100 µM

###

Listing of recorded TGI by entry.
- Test system: RPMI-8226 leukemia
- test: NCI tumour cell line growth inhibition, 48 h

Known results for compounds:
NS(=O)(=O)c1ccc(N=Nc2c(O)[nH]c3ccc(C(=O)NCc4ccncc4)cc23)cc1 = > 25 µM
[O-]c1ccccc1C=Nc1ccc2c(c1)CCC2.[O-]c1ccccc1C=Nc1ccc2c(c1)CCC2.[O]=[U+2]=[O] = > 100 µM
C[S+](C)CC1OC(n2cnc3c(N)ncnc32)C(O)C1O (stereo unspecified) = > 225 µM
O=C1C(=O)N(c2ccc(Cl)cc2)C(=O)C(=O)C1c1nc2ccccc2s1 = > 100 µM
O=C1CC(C(CC(=O)c2ccccc2)c2ccccc2)C(=O)c2ccccc2N1 (stereo unspecified) = > 100 µM

# context switch: different compound, same TGI
I'm curious: which TGI was measured for CC(=O)NNc1nc(C)c(C(=O)NNC(=O)C(=O)Nc2cccc(C(C)=O)c2)s1 tested on RPMI-8226 leukemia?
> 100 µM

###

- System: EKVX NSCLC
- test: NCI tumour cell line growth inhibition, 48 h
measurement_name: TGI

O=C1OC(c2ccccc2)=N/C1=C\c1ccc(Oc2ccc(Cl)c(Cl)c2)cc1 = > 100 µM
NS(=O)(=O)c1ccc(N=Nc2c(O)[nH]c3ccc(C(=O)NCc4ccncc4)cc23)cc1 = > 25 µM
Nc1nccc(NCC2(CO)CCC2)n1 = > 100 µM
COCC1OC(S(=O)(=O)c2ccccc2)C(O)C(OC)C1OC (stereo not given) = > 100 µM

Which TGI is reported for this compound? CCCc1c(C(=O)OCC)[nH]c(-c2ccc(-c3[nH]c(C(=O)OCC)c(CCC)c3C(=O)OCC)s2)c1C(=O)OCC
> 100 µM

###

- System: DMS 273 small cell lung
- test: NCI tumour cell line growth inhibition, 48 h
measurement_name: TGI

CCOC(=O)CN(Cn1cncn1)Cn1cncn1 = 39.8 µM
CCc1cccc(C)c1NC(=O)CCc1nnc2s/c(=C\c3cccc4ccccc34)c(=O)n12 = > 100 µM
Clc1cccc(N2CCN(CCCN3CCc4c([nH]c5ccccc45)C3c3cccnc3)CC2)c1 (stereo not given) = 27.9 µM

Which TGI is reported for this molecule? O=C1Nc2cc([N+](=O)[O-])c(Br)cc2C1=O
37.3 µM

What about this molecule? CC1(C)C2CCC3(OCCO3)C1C(O)C2 (stereo not given)
> 100 µM

What about this molecule? CCCc1c(C(=O)OCC)[nH]c(-c2ccc(-c3[nH]c(C(=O)OCC)c(CCC)c3C(=O)OCC)s2)c1C(=O)OCC
> 100 µM

What about this molecule? O=C1C[C@@H]2[C@@H](CCC23CC3)N1
> 100 µM

What about this molecule? O=c1nc(-c2ccccc2)cc(CC(O)c2ccc(Cl)c(Cl)c2)[nH]1 (stereo not given)
> 100 µM

What about this molecule? CCOC(=O)C(C)Sc1nnc(COc2ccccc2OC)n1-c1ccccc1 (stereo not given)
> 100 µM

What about this molecule? O=c1cccccc1NCCCCCCCNc1cccccc1=O
> 100 µM

###

Listing of recorded TGI by entry.
- Test system: COLO 205 colon
- test: NCI tumour cell line growth inhibition, 48 h

COc1ccccc1N=Nc1c(O)c(S(=O)(=O)O)cc2cc(S(=O)(=O)O)ccc12 = > 100 µM
[O-]c1ccccc1C=Nc1ccc2c(c1)CCC2.[O-]c1ccccc1C=Nc1ccc2c(c1)CCC2.[O]=[U+2]=[O] = > 100 µM
O=[N+]([O-])c1ccc2oc(=Nc3ccccc3)c(Nc3ccccc3)nc2c1 = > 100 µM
COc1cc(C2C(Cl)C(=O)N2NC(=O)c2ccc(NC(C)=O)cc2)ccc1O (stereo not given) = > 100 µM
CC12CCCCC1=[N+]([O-])C(C)(C)N2O (stereo not given) = > 100 µM

Which TGI is reported for this compound? CCc1cccc(C)c1NC(=O)CCc1nnc2s/c(=C\c3cccc4ccccc34)c(=O)n12
> 100 µM

###

- Tested on: M14 melanoma
- test: NCI tumour cell line growth inhibition, 48 h
Listing of recorded TGI by entry.

Known results for compounds:
CCOC(=O)C(C)Sc1nnc(COc2ccccc2OC)n1-c1ccccc1 (centres undefined) = > 100 µM
O=C(N/C(=C\c1ccc(Br)cc1)c1nc2ccccc2[nH]1)c1ccccc1 = 32.8 µM
N=C(N)SCCC(=O)CCSC(=N)N = > 100 µM
Cc1ccc(S(=O)(=O)[C@@H](Cl)[C@H]2N=C(Cl)NN=C2c2ccccc2)cc1 = 42.6 µM
CN(C)/C=N\c1ccnc(=O)[nH]1 = > 100 µM
CCN(Cc1cc(F)ccc1F)c1ccc(CO)c(Cl)c1 = 32.5 µM
C=C1[C@@](C)([C@@H]2CCCS2)[C@H]2C(C)=C[C@]1(C)n1c(=O)n(-c3ccccc3)c(=O)n12 = > 100 µM
CCCCCCCC(=O)OCCCC1[C@]2(C)CC[C@@]3(C)C([C@H](C)CCC=C(C)C)CC[C@]3(C)C2CC[C@]12OC2(C)C (some centres undefined) = > 100 µM

# context switch: different compound, same TGI
Which TGI is reported for this compound? C=C(C)C1CC/C(C)=C/CC[C@]2(C)O[C@@H]2CCC2=CC1OC2=O (some centres undefined)
> 100 µM

###

- Test system: NCI-H23 lung
- test: NCI tumour cell line growth inhibition, 48 h
Listing of recorded TGI by entry.

O=[N+]([O-])c1cccc(-c2nc(-c3ccccc3)c(-c3ccccc3)[nH]2)c1 = > 100 µM
NC(Cc1c[nH]c2cc([N+](=O)[O-])ccc12)C(=O)O (stereo unspecified) = > 100 µM

Which TGI is reported for this compound? COC(=O)c1c(CC(Cc2ccc3c(c2)CCCC3)C(=O)OC)ccc2c1CCCC2 (stereo unspecified)
> 100 µM

What about this compound? [O-][n+]1c(CN2CCCCC2)nc2cccc3c2c1-c1ccccc1-3
48.5 µM

What about this compound? COC(=O)C(=O)C(C(=O)C(=O)Nc1cccc([N+](=O)[O-])c1)c1nc2ccc(Cl)cc2[nH]c1=O (stereo unspecified)
> 100 µM

###

- Test system: RXF 393 renal
- test: NCI tumour cell line growth inhibition, 48 h
measurement_name: TGI

Known results for molecules:
C#CCNC(=O)ON1C(=O)CCC1=O = > 100 µM
COC(=O)c1c(CC(Cc2ccc3c(c2)CCCC3)C(=O)OC)ccc2c1CCCC2 (configuration not stated) = > 100 µM
[O-][N+]1(CC[N+]2([O-])CCCCC2)CCCCC1 = > 100 µM
C[Si](C)(C)C(CCCCSc1ccccc1)(Sc1ccccc1)Sc1ccccc1 = > 100 µM
Cn1cccc1-c1cc(-c2ccccc2)[nH]c(=O)c1C#N = > 100 µM
O=C1C=C2CCC[C@H]3OC(=O)C[C@@]23CC1 = > 100 µM
CCCn1cnc2c(SCC(=O)O)nc(N)nc21 = > 100 µM
COC(=O)C1C(=O)CC2CCCCC21 (configuration not stated) = > 100 µM
CN1N=C(c2ccncc2)OC1c1cccc(C(F)(F)F)c1 (configuration not stated) = > 100 µM
NS(=O)(=O)c1ccc(N=Nc2c(O)[nH]c3ccc(C(=O)NCc4ccncc4)cc23)cc1 = > 25 µM

Which TGI is reported for this molecule? CC(=O)OC12c3ccccc3C(c3ccccc31)C1C(=O)N(c3ccccn3)C(=O)C12 (configuration not stated)
> 100 µM

What about this molecule? COc1ccc(C(Cc2ccccc2)C2NC(=S)NC2=O)cc1 (configuration not stated)
> 25 µM

Values from PubChem BioAssay (NCI)
